- test_target: Pro-neuregulin-1, membrane-bound isoform (Homo sapiens) (UniProt Q02297)
- Sequence (Q02297 whole entry, looked up, canonical isoform): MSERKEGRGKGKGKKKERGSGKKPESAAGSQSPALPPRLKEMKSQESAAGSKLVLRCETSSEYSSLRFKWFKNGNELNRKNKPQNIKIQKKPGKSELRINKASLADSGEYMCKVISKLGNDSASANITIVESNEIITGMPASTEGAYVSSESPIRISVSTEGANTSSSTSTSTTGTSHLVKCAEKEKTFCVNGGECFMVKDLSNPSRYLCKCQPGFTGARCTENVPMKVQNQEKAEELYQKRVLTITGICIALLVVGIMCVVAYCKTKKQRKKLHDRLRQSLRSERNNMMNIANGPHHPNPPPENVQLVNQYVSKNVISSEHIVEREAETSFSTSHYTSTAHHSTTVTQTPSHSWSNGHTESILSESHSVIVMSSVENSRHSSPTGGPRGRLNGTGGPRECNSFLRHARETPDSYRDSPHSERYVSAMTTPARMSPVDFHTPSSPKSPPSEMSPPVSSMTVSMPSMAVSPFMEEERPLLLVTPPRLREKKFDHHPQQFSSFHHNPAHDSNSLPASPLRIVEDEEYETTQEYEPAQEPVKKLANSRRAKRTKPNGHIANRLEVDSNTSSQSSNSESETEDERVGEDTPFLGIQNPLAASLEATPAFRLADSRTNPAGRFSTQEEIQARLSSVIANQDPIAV
- experiment_summary: small molecules binding neuregulin-1 protein – biochemical, small-molecule microarray, fluorescence 635/667, psychiatric disease protein project, primary screen (AID 1075);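 further: score combines 667 nm spot fluorescence with signal to noise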
- settings: NRG1 binding, 635 nm fluorescence, higher = more signal
I would appreciate it if you labelled entries Criterion met when composite z-score is 0.7 or higher, otherwise Criterion not met.

[
  {
    "compound": "COCC(=C=CC[C@H](O)c1ccccc1OCCO)C[C@H](O)c1ccccn1",
    "answer_label": "Criterion not met"
  },
  {
    "compound": "CC(C)NC(=O)[C@@]1(c2ccc([N+](=O)[O-])cc2)CC(=O)N(C2CCCCC2)[C@@H]1c1ccc(CO)cc1",
    "answer_label": "Criterion met"
  },
  {
    "compound": "CCCCC(CC)C(O)C1C=CC2C(=O)N(c3ccccc3)C(=O)C2N1Nc1ccccc1F (stereo unspecified)",
    "answer_label": "Criterion not met"
  },
  {
    "compound": "C[N+](C)(C)CCCC[C@@H]1NC(=O)[C@@H]2C[C@H](C(=O)NCCCCCCN)[C@H](c3cccc(OCCO)c3)N2C1=O",
    "answer_label": "Criterion met"
  },
  {
    "compound": "[N-]=[N+]=Nc1ccccc1C[C@]1(C(=O)N2CCOCC2)COC(c2ccc(OCCCO)cc2)=N1",
    "answer_label": "Criterion met"
  },
  {
    "compound": "C=C(COC)/C(=C/C[C@H](OC(=O)c1ccncc1)c1ccccc1OCCO)c1cc(C(=O)OC)ccc1OC",
    "answer_label": "Criterion met"
  },
  {
    "compound": "COC(=O)C/C=C/C[C@]1(O)C(=O)N(C)c2ccccc21",
    "answer_label": "Criterion not met"
  },
  {
    "compound": "CC(C)N1C(=O)C[C@@](C(=O)NC2CC2)(c2ccc([N+](=O)[O-])cc2)[C@H]1c1ccc(CO)cc1",
    "answer_label": "Criterion met"
  },
  {
    "compound": "CCOC(=O)C1=CC[C@@H](c2ccccc2F)N(S(=O)(=O)c2ccc(C)cc2)[C@H]1c1ccccc1",
    "answer_label": "Criterion not met"
  },
  {
    "compound": "CCC#CCN(Cc1ccccc1Br)[C@H](/C=C/C1CC1)[C@@H](O)Cc1ccccc1",
    "answer_label": "Criterion not met"
  },
  {
    "compound": "O=C1C2C=CC(C(O)c3ccco3)N(Nc3ccccc3F)C2C(=O)N1c1ccccc1 (stereo unspecified)",
    "answer_label": "Criterion met"
  },
  {
    "compound": "NCCCCCNC(=O)[C@@H]1C[C@@H]2C(=O)N[C@@H](CCCCN)C(=O)N2[C@@H]1c1ccc(O)cc1",
    "answer_label": "Criterion met"
  },
  {
    "compound": "COC(=O)C(CC#Cc1ccc2c(c1)[C@]1(C(=O)N2)[C@H](c2ccc(O)cc2)N2[C@H](c3ccccc3)[C@H](c3ccccc3)OC(=O)[C@H]2[C@@H]1C(=O)NC[C@H](O)c1ccccc1)C(=O)OC",
    "answer_label": "Criterion not met"
  },
  {
    "compound": "Cc1ccc(N2C(=O)c3ccccc3[C@@H](C(=O)NCCCN(C)C)[C@@H]2c2ccc(CO)cc2)nc1",
    "answer_label": "Criterion met"
  },
  {
    "compound": "N#Cc1ccc(NN2C(C(O)c3ccc(Br)cc3)C=CC3C(=O)N(c4ccccc4)C(=O)C32)cc1 (stereo unspecified)",
    "answer_label": "Criterion met"
  },
  {
    "compound": "COc1ccc([Si](C)(C)[C@H]2[C@H](CC(=O)N3CCC[C@H]3CO)O[C@@]3(C(=O)N(Cc4ccc(N5CCOC5=O)cc4)c4ccccc43)[C@@H]2C)cc1",
    "answer_label": "Criterion met"
  }
]
